target: EGFR-pY978; assay: fluorescence polarization
pKd: −log10 of the molar value.
Threshold check on pKd: at or above 7 gives rule met, strictly below gives rule not met.

# binder, group-label
records = [
    ("K2E T8V S10A K15I (designed binder) MKIEEHHHHHHSSGRENLYFQGGAAQPAAPVDSIQAEEWYFGKLGREDAERQLLSFGNPRGTFLIRESETVKGAYALSIRDWDDMKGDHVKHYIIRKLDNGGYYITTRAQFETLQQLVQHYSERAAGLSSRLVVPSHKGAAA", "rule not met"),
    ("S10V K15L (designed binder) MKIEEHHHHHHSSGRENLYFQGGAAQPAAPVDSIQAEEWYFGKLGRKDAERQLLSFGNPRGTFLIRESETTKGAYVLSIRDWDDMKGDHVKHYLIRKLDNGGYYITTRAQFETLQQLVQHYSERAAGLSSRLVVPSHKGAAA", "rule not met"),
    ("T8I S10A K15L (designed binder) MKIEEHHHHHHSSGRENLYFQGGAAQPAAPVDSIQAEEWYFGKLGRKDAERQLLSFGNPRGTFLIRESETIKGAYALSIRDWDDMKGDHVKHYLIRKLDNGGYYITTRAQFETLQQLVQHYSERAAGLSSRLVVPSHKGAAA", "rule met"),
    ("S10A (designed binder) MKIEEHHHHHHSSGRENLYFQGGAAQPAAPVDSIQAEEWYFGKLGRKDAERQLLSFGNPRGTFLIRESETTKGAYALSIRDWDDMKGDHVKHYKIRKLDNGGYYITTRAQFETLQQLVQHYSERAAGLSSRLVVPSHKGAAA", "rule not met"),
    ("S10V (designed binder) MKIEEHHHHHHSSGRENLYFQGGAAQPAAPVDSIQAEEWYFGKLGRKDAERQLLSFGNPRGTFLIRESETTKGAYVLSIRDWDDMKGDHVKHYKIRKLDNGGYYITTRAQFETLQQLVQHYSERAAGLSSRLVVPSHKGAAA", "rule not met"),
]
